This collection of values is drawn from patent US20250042905A1.

# target-entity: PD brain-derived alpha-synuclein aggregates (Homo sapiens, UniProt P37840)
# Construct: PD brain-derived alpha-synuclein aggregates were spotted onto microarray slides; from tissue; host or cells: human Parkinson's disease patient brain
# assay-notes: Micro-radiobinding competition assay for the determination of binding affinity
# stated-conditions: non-radiolabelled example compound at 100 nM; competition with tritiated reference alpha-synuclein ligand (20 nM or 30 nM); 100% = excess non-radiolabelled reference ligand; read-out: Competition at 100 nM (%)
Exercise: state measured inhibition at 0.1 µM for each of the compounds provided.
One number for each entry, in %.

Record excerpt, results attached:
INSERT INTO assay_data (compound, assay_metric, recorded_result) VALUES
  ('Cc1ccc(N2Cc3nn(-c4ccc(N5CC[C@H](F)C5)nn4)cc3C2=O)cn1 [Example 30]', 'inhibition at 0.1 µM', 4),
  ('O=C1c2cn(-c3ccc(N4CC[C@@H](F)C4)nn3)nc2CN1c1cncs1 [Example 22]', 'inhibition at 0.1 µM', 30);

For each of the items listed, what is its inhibition at 0.1 µM?
1. COc1cncc(N2Cc3nn(-c4ccc(N5CC[C@@H](F)C5)nn4)cc3C2=O)c1 [Example 23]
2. Cn1cc(N2Cc3nn(-c4ccc(N5CC[C@H](F)C5)nn4)cc3C2=O)cn1 [Example 26]

## Result
1. 65
2. 8

* * *

Kindly supply the reported inhibition at 1 µM values for the records listed here.
# target-entity: PD brain-derived alpha-synuclein aggregates (Homo sapiens)
# Construct: PD brain-derived alpha-synuclein aggregates were spotted onto microarray slides; from tissue; host or cells: human Parkinson's disease patient brain
# assay-notes: Micro-radiobinding competition assay for the determination of binding affinity
# stated-conditions: non-radiolabelled example compound at 1 μM; competition with tritiated reference alpha-synuclein ligand (20 nM or 30 nM); 100% = excess non-radiolabelled reference ligand; read-out: Competition at 1 μM (%)
In your response, the unit should come after the numeric value.

The examples below pair each entry with its known result.
INSERT INTO measurements (molecule, target_entity, recorded_result) VALUES
  ('Cc1ccc(N2Cc3nn(-c4cnc(N5CC[C@@H](F)C5)cn4)cc3C2=O)cn1 [Example 17]', 'PD brain-derived alpha-synuclein aggregates (Homo sapiens)', '91%'),
  ('COc1cncc(N2Cc3nn(-c4ccc(N5CC[C@@H](F)C5)nn4)cc3C2=O)c1 [Example 23]', 'PD brain-derived alpha-synuclein aggregates (Homo sapiens)', '76%'),
  ('O=C1c2cn(-c3cnc(N4CCCCC(F)C4)cn3)nc2CN1c1cccnc1 (stereo not shown) [Example 5]', 'PD brain-derived alpha-synuclein aggregates (Homo sapiens)', '68%');

## Task Value lookup for inhibition at 1 µM; key = COc1cncc(N2Cc3nn(-c4ccc(N5CC[C@H](F)C5)nn4)cc3C2=O)c1 [Example 27]
## Result 57%

* * *

# target-entity: PD brain-derived alpha-synuclein aggregates (Homo sapiens)
# Construct: PD brain-derived alpha-synuclein aggregates were spotted onto microarray slides; from tissue; host or cells: human Parkinson's disease patient brain
# assay-notes: Micro-radiobinding competition assay for the determination of binding affinity
# stated-conditions: non-radiolabelled example compound at 100 nM; competition with tritiated reference alpha-synuclein ligand (20 nM or 30 nM); 100% = excess non-radiolabelled reference ligand; read-out: Competition at 100 nM (%)
Output Satisfied for inhibition at 0.1 µM not less than 40%; output Not satisfied otherwise.

Known results for compounds:
INSERT INTO measurements (compound, class_assignment) VALUES
  ('O=C1c2cn(-c3ccc(N4CC[C@@H](F)C4)nn3)nc2CN1c1ccns1', 'Satisfied'),
  ('O=C1c2cn(-c3ccc(N4CC[C@H](F)C4)nn3)nc2CN1c1cncs1', 'Not satisfied'),
  ('O=C1c2cn(-c3ccc(N4CCCC(F)CC4)nn3)nc2CN1c1cccnc1 (stereo not drawn)', 'Not satisfied'),
  ('Cc1ccc(N2Cc3nn(-c4ccc(N5CC[C@@H](F)C5)nn4)cc3C2=O)cn1', 'Not satisfied'),
  ('Cc1ccc(N2Cc3nn(-c4cnc(N5CC(F)C5)cn4)cc3C2=O)cn1', 'Satisfied'),
  ('O=C1c2cn(-c3ccc(N4CC[C@H](F)C4)nn3)nc2CN1c1ccns1', 'Satisfied'),
  ('Cn1cc(N2Cc3nn(-c4cnc(N5CCCCC(F)C5)cn4)cc3C2=O)cn1 (stereo not drawn)', 'Satisfied'),
  ('O=C1c2cn(-c3ccc(C(F)(F)F)nn3)nc2CN1c1cccnc1', 'Not satisfied'),
  ('O=C1c2cn(-c3ccc(N4CC[C@H](F)C4)nn3)nc2CN1c1cccnc1', 'Not satisfied'),
  ('O=C1c2cn(-c3ccc(N4CCCCC(F)C4)nn3)nc2CN1c1cccnc1 (stereo not drawn)', 'Not satisfied');

## Task Is it the case that `Cn1cc(N2Cc3nn(-c4ccc(N5CC[C@@H](F)C5)nn4)cc3C2=O)cn1` has inhibition at 0.1 µM reaching or exceeding 40%?
## Result Satisfied

## Task Same question, `O=C1c2cn(-c3cnc(N4CC[C@@H](F)C4)cn3)nc2CN1c1cccnc1` this time
## Result Satisfied

## Task Same read-out for `O=C1c2cn(-c3ccc(N4CC[C@@H](F)C4)nn3)nc2CN1c1cccnc1` ?
## Result Not satisfied

## Task Now the compound `Cc1ccc(N2Cc3nn(-c4cnc(N5CC[C@@H](F)C5)cn4)cc3C2=O)cn1`
## Result Satisfied

## Task Thanks! And `COc1cncc(N2Cc3nn(-c4ccc(N5CC[C@H](F)C5)nn4)cc3C2=O)c1` ?
## Result Satisfied

## Task Another compound: `Cc1ccc(N2Cc3nn(-c4cnc(N5CC[C@H](F)C5)cn4)cc3C2=O)cn1`
## Result Not satisfied
